- Experimental protocol: Ocular pharmacokinetics in pigmented rats (iris-ciliary body, 3H-A01)
- Assay type: in vivo, rat
- Study conditions: HsdOla/LH (pigmented), rat, topical, 7 µL of 10 mg/mL solution per eye; pigmented iris-ciliary body, 2 h after administration; read-out: bound concentration at 2 h
Outcome measure: concentration at 2 h

INPUT: Tell me the measured concentration at 2 h of C/C(=N\Nc1ccc(S(N)(=O)=O)cc1)c1cccnc1 , please.
OUTPUT: ~500 ng/g

----------
- Experimental protocol: Ocular pharmacokinetics in albino rats (iris-ciliary body, 3H-A01)
- Type: in vivo, rat
- Study conditions: RccHan/Wist (albino), rat, topical, 7 µL of 10 mg/mL solution per eye; albino iris-ciliary body, 4 h; read-out: free concentration by 4 h
Outcome measure: concentration at 4 h

INPUT: Tell me the measured concentration at 4 h of C/C(=N\Nc1ccc(S(N)(=O)=O)cc1)c1cccnc1 , please.
OUTPUT: ~50 ng/g
